meta.source: patent US11589590B2

Test Summary: Fragmentation of pyridine adducts in deuterated aqueous buffer followed by 1H NMR
Type: physicochemical
Assay Context: 37° C.; relative to 5i = 1
Would you kindly list krel for each of these compounds?
Answers are plain numbers.

COC(=O)c1cc(C(=O)OC)c[n+](C2CCC3SC2CCC3[n+]2cc(C(=O)OC)cc(C(=O)OC)c2)c1.O=S(=O)([O-])C(F)(F)F.O=S(=O)([O-])C(F)(F)F (stereo not shown) = 22
COC(=O)c1cc(Br)c[n+](C2CCC3SC2CCC3[n+]2cc(Br)cc(C(=O)OC)c2)c1.O=S(=O)([O-])C(F)(F)F.O=S(=O)([O-])C(F)(F)F (stereo not shown) = 20
COC(=O)c1cc[n+](C2CCC3SC2CCC3[n+]2ccc(C(=O)OC)cc2)cc1.O=[N+]([O-])[O-].O=[N+]([O-])[O-] (stereo not shown) = 0.3
NC(=O)c1cc(Br)c[n+](C2CCC3SC2CCC3[n+]2cc(Br)cc(C(N)=O)c2)c1.O=S(=O)([O-])C(F)(F)F.O=S(=O)([O-])C(F)(F)F (stereo not shown) = 17
FC(F)(F)c1ccc[n+](C2CCC3SC2CCC3[n+]2cccc(C(F)(F)F)c2)c1.O=[N+]([O-])[O-].O=[N+]([O-])[O-] (stereo not shown) = 11

Go through the items and report each one's krel.
1. COc1cc(Br)c[n+](C2CCC3SC2CCC3[n+]2cc(Br)cc(OC)c2)c1.O=[N+]([O-])[O-].O=[N+]([O-])[O-] (stereo not shown)
2. N#Cc1ccc[n+](C2CCC3SC2CCC3[n+]2cccc(C#N)c2)c1.O=[N+]([O-])[O-].O=[N+]([O-])[O-] (stereo not shown)

Result string:
1
2.1
